# target.of.assay: ERα (Homo sapiens, UniProt P03372)
# Sequence (P03372 311-547 limits assumed): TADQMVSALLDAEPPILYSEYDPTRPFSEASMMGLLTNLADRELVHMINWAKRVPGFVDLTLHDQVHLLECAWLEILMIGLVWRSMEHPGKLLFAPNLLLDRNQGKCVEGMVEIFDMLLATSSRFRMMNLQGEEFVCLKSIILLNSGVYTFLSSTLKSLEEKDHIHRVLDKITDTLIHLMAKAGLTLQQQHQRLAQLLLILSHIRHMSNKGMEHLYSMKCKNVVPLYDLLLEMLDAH
pIC50: −log10 of the molar value.
quantity.name: pIC50

[Q] Query: pIC50; subject: CN(C)CCOc1ccc(/C(=C(/CCCO)c2ccc3cnn(C)c3c2)c2ccc(O)cc2)cc1 [Compound 15g]
[A] < 5.00

---

# target.of.assay: hERG channel (Homo sapiens)
# Sequence (Q12809 whole entry): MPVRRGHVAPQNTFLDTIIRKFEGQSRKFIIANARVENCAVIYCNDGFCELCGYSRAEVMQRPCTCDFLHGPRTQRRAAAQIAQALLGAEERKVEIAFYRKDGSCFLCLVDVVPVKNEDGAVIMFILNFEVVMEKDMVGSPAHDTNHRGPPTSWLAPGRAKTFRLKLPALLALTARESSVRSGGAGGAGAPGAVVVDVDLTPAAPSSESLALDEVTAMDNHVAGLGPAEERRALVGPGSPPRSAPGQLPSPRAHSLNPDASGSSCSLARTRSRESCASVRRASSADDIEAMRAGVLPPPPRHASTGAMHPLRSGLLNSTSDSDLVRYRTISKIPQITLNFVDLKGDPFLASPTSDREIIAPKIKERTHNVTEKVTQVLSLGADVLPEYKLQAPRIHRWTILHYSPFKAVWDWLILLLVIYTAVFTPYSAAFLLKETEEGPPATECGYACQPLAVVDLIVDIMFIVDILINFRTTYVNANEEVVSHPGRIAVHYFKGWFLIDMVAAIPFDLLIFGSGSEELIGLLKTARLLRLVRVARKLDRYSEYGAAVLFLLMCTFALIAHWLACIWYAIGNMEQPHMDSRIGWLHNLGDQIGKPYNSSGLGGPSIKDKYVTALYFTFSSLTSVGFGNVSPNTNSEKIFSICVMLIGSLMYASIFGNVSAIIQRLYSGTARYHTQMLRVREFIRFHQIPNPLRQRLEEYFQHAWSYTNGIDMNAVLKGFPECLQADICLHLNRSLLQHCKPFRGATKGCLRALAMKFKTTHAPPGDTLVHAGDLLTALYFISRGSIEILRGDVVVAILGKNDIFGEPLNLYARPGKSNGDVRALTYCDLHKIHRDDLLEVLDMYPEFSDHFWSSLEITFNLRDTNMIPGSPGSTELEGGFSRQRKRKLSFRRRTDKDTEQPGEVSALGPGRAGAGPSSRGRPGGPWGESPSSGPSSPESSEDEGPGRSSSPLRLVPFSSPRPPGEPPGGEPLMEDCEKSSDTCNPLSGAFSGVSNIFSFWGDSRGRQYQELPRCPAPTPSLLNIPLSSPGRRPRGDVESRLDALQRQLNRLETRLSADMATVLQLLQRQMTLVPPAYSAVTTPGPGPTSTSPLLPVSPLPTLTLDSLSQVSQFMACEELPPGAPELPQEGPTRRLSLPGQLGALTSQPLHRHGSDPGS
quantity.name: IC50

[Q] Which IC50 is listed for CN(C)CCOc1ccc(/C(=C(/CCCO)c2ccc3cnn(C)c3c2)c2ccc(O)cc2)cc1 [Compound 15g] ?
[A] > 30 µM

---

# target.of.assay: UniProt:P11474
# Sequence (P11474 193-421 limits assumed): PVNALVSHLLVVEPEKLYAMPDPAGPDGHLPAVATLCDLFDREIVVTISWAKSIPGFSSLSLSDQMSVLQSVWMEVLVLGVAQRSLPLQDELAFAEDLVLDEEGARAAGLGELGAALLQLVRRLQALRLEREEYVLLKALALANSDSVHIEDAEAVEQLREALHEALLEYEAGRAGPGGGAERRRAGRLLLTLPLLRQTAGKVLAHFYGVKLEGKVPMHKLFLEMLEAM
pIC50: −log10 of the molar value.
quantity.name: pIC50

[Q] Lab note: need pIC50 for CN(C)CCOc1ccc(/C(=C(/CCCO)c2ccc3cnn(C)c3c2)c2ccc(O)cc2)cc1 [Compound 15g] on UniProt:P11474, anyone have it?
[A] < 5.00

---

# target.of.assay: ERRγ (Homo sapiens)
# Sequence (P62508 233-457 limits assumed): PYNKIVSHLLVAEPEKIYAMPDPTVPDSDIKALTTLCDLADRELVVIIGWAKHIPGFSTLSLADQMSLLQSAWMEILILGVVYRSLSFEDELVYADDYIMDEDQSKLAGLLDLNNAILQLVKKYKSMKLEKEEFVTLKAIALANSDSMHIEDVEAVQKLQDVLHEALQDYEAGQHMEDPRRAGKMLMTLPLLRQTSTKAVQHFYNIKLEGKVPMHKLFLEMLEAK
Could you please report measured IC50 for the items listed next?

Illustrative cases are given below, each with its answer.
molecule: COc1ccc(/C(CCCO)=C(/c2ccc(O)cc2)c2ccc(OCCN(C)C)cc2)cn1 [Compound 15c]
recorded.measurement: > 10 µM
//
molecule: CN(C)CCOc1ccc(/C(=C(/CCCO)c2ccnc(F)c2)c2ccc(O)cc2)cc1 [Compound 15e]
recorded.measurement: 5.35 µM

[Q] IC50 of CN(C)CCOc1ccc(/C(=C/CCCO)c2ccc(O)cc2)cc1 [Compound 15a] on ERRγ (Homo sapiens)?
[A] > 10 µM

---

# target.of.assay: ERRγ (Homo sapiens)
# Sequence (P62508 233-457 limits assumed): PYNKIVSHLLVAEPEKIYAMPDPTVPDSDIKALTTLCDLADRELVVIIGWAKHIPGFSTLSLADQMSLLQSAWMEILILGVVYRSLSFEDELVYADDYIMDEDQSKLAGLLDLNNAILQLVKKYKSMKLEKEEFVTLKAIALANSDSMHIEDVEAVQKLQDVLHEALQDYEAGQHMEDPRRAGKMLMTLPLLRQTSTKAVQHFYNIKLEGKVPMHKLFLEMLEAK
I'd appreciate it if you could supply IC50 values for the items below.

compound: COCCC/C(=C(\c1ccc(O)cc1)c1ccc(OCCN(C)C)cc1)c1cnn(C)c1 [Compound 13c]
quantity.name: IC50
recorded.measurement: > 10 µM

For the 2 compounds below, give their IC50 values.
1. COCCC/C(=C(\c1ccc(O)cc1)c1ccc(OCCN(C)C)cc1)c1ccc(C(C)C)nc1
2. COCCC/C(=C(\c1ccc(O)cc1)c1ccc(OCCN(C)C)c(C(F)(F)F)c1)c1cccnc1

[A]
1. > 10 µM
2. > 10 µM
